Entry source: ChEMBL document CHEMBL2176932

The following molecules are shown together with reported HC50 at 1 h values.
- Assay Method Text: Toxicity in sheep RBC assessed as hemolytic activity after 1 hr
- Format: cell-based, Ovis aries, Erythrocyte
- Run Parameters: sheep red blood cells
Observation Type: HC50 at 1 h

INSERT INTO results (chem_smiles, result) VALUES
  ('CCCCCCCCN1CC(=O)N[C@@H](Cc2c[nH]c3ccccc23)C(=O)NN(CCCCCCCC)CC(=O)N[C@@H](CCCCN)C(=O)NN(CCCCN)CC(=O)N[C@@H](Cc2c[nH]c3ccccc23)C(=O)N1', '90 µM'),
  ('CC(C)CN1CC(=O)N[C@@H](Cc2c[nH]c3ccccc23)C(=O)NN(CC(C)C)CC(=O)N[C@@H](CCCCN)C(=O)NN(CCCCN)CC(=O)N[C@@H](CCCCN)C(=O)N1', '> 100 µM'),
  ('CC(C)C[C@@H]1NC(=O)CN(Cc2cccc3ccccc23)NC(=O)[C@H](CCCNC(=N)N)NC(=O)CN(CCCNC(=N)N)NC(=O)[C@H](CC(C)C)NC1=O', '> 100 µM');

----------
- System: Salmonella enterica
- Assay Method Text: Antibacterial activity against Salmonella enterica ATCC 13076 after 48 hrs by microtiter broth dilution method
- Assay type: functional
- Run Parameters: ATCC 13076, 48 h
The following compounds are shown together with reported MIC values.
Observation Type: MIC

INSERT INTO measurements (chem_smiles, observation_type, result) VALUES
  ('CC(C)CN1CC(=O)N[C@@H](Cc2c[nH]c3ccccc23)C(=O)NN(CC(C)C)CC(=O)N[C@@H](CCCCN)C(=O)NN(CCCCN)CC(=O)N[C@@H](Cc2c[nH]c3ccccc23)C(=O)N1', 'MIC', '> 100 µM'),
  ('CC(C)C[C@@H]1NC(=O)CN(Cc2ccc(-c3ccccc3)cc2)NC(=O)[C@H](CC(C)C)NC(=O)CN(Cc2ccc(-c3ccccc3)cc2)NC(=O)[C@H](CCCCN)NC(=O)CN(CCCCN)NC1=O', 'MIC', '100 µM'),
  ('CCCCCCCCCCCCN1CC(=O)N[C@@H](Cc2c[nH]c3ccccc23)C(=O)NN(Cc2cccc3ccccc23)CC(=O)N[C@@H](CCCCN)C(=O)NN(CCCCN)CC(=O)N[C@@H](CC2CCCCC2)C(=O)N1', 'MIC', '> 100 µM'),
  ('CC(C)C[C@H]1NC(=O)CN(CCCCN)NC(=O)[C@H](CCCCN)NC(=O)CN(Cc2cccc3ccccc23)NC(=O)CN(CC(C)C)NC1=O', 'MIC', '> 100 µM'),
  ('CC(C)C[C@@H]1NC(=O)CN(Cc2ccc(-c3ccccc3)cc2)NC(=O)[C@H](CCCCN)NC(=O)CN(CCCCN)NC(=O)CN(Cc2ccc(-c3ccccc3)cc2)NC1=O', 'MIC', '50 µM'),
  ('CC(C)CN1CC(=O)N[C@@H](Cc2c[nH]c3ccccc23)C(=O)NN(CC(C)C)CC(=O)N[C@@H](CCCCN)C(=O)NN(CCCCN)CC(=O)N[C@@H](CCCCN)C(=O)N1', 'MIC', '> 100 µM'),
  ('CC(C)C[C@@H]1NC(=O)CN(Cc2ccc3ccccc3c2)NC(=O)[C@H](CCCCN)NC(=O)CN(CCCCN)NC(=O)CN(Cc2ccc3ccccc3c2)NC1=O', 'MIC', '100 µM'),
  ('CC(C)C[C@@H]1NC(=O)CN(Cc2cccc3ccccc23)NC(=O)[C@H](CCCNC(=N)N)NC(=O)CN(CCCNC(=N)N)NC(=O)[C@H](CC(C)C)NC1=O', 'MIC', '> 100 µM'),
  ('CCCCCCCCN1CC(=O)N[C@@H](Cc2c[nH]c3ccccc23)C(=O)NN(CCCCCCCC)CC(=O)N[C@@H](CCCCN)C(=O)NN(CCCCN)CC(=O)N[C@@H](Cc2c[nH]c3ccccc23)C(=O)N1', 'MIC', '> 100 µM'),
  ('N=C(N)NCCC[C@@H]1NC(=O)CN(CCCCN)NC(=O)CN(Cc2ccc3ccccc3c2)NC(=O)[C@H](Cc2ccccc2)NC(=O)CN(Cc2ccc3ccccc3c2)NC1=O', 'MIC', '100 µM'),
  ('C[C@@H](O)[C@@H]1NC(=O)CN(CCCCN)NC(=O)[C@H](Cc2ccccc2)NC(=O)CN(Cc2cccc3ccccc23)NC(=O)[C@H](CO)NC(=O)CN(CCCCN)NC(=O)[C@H](CO)NC(=O)CN(CCCCN)NC1=O', 'MIC', '> 100 µM'),
  ('N=C(N)NCCC[C@@H]1NC(=O)CN(CC2CCCCC2)NC(=O)[C@H](Cc2c[nH]c3ccccc23)NC(=O)CN(Cc2ccc(F)cc2)NC(=O)[C@H](Cc2c[nH]c3ccccc23)NC(=O)CN(CCCCN)NC1=O', 'MIC', '25 µM'),
  ('CC(C)CN1CC(=O)N[C@@H](Cc2c[nH]c3ccccc23)C(=O)NN(CCCCN)CC(=O)N[C@@H](CCCCN)C(=O)NN(CCCCN)CC(=O)N[C@@H](Cc2c[nH]c3ccccc23)C(=O)N1', 'MIC', '> 100 µM');

----------
- System: Staphylococcus aureus
- Assay Method Text: Antibacterial activity against Staphylococcus aureus ATCC 25923 after 48 hrs by microtiter broth dilution method
- Type: functional
- Run Parameters: ATCC 25923, 48 h
The following compounds are shown together with reported MIC values.
Observation Type: MIC (µM)

INSERT INTO assay_data (chem_smiles, readout_relation, readout_number) VALUES
  ('N=C(N)NCCC[C@@H]1NC(=O)CN(CCCCN)NC(=O)CN(Cc2ccc3ccccc3c2)NC(=O)[C@H](Cc2ccccc2)NC(=O)CN(Cc2ccc3ccccc3c2)NC1=O', '=', 50),
  ('CC(C)C[C@@H]1NC(=O)CN(Cc2ccc(-c3ccccc3)cc2)NC(=O)[C@H](CC(C)C)NC(=O)CN(Cc2ccc(-c3ccccc3)cc2)NC(=O)[C@H](CCCCN)NC(=O)CN(CCCCN)NC1=O', '=', 1.56),
  ('CC(C)C[C@H]1NC(=O)CN(CCCCN)NC(=O)[C@H](CCCCN)NC(=O)CN(Cc2cccc3ccccc23)NC(=O)CN(CC(C)C)NC1=O', '>', 100),
  ('CC(C)C[C@@H]1NC(=O)CN(Cc2ccc3ccccc3c2)NC(=O)[C@H](CCCCN)NC(=O)CN(CCCCN)NC(=O)CN(Cc2ccc3ccccc3c2)NC1=O', '>', 100),
  ('CC(C)C[C@@H]1NC(=O)CN(Cc2cccc3ccccc23)NC(=O)[C@H](CCCNC(=N)N)NC(=O)CN(CCCNC(=N)N)NC(=O)[C@H](CC(C)C)NC1=O', '>', 100),
  ('CCCCCCCCCCCCN1CC(=O)N[C@@H](Cc2c[nH]c3ccccc23)C(=O)NN(Cc2cccc3ccccc23)CC(=O)N[C@@H](CCCCN)C(=O)NN(CCCCN)CC(=O)N[C@@H](CC2CCCCC2)C(=O)N1', '=', 25);

----------
The following compounds are shown together with reported MIC values.
- Tested on: Staphylococcus aureus
- Assay Method Text: Antibacterial activity against Staphylococcus aureus ATCC 25923 after 48 hrs by microtiter broth dilution method
- Type: functional
- Run Parameters: ATCC 25923, 48 h
Observation Type: MIC (µM)

INSERT INTO measurements (chem_smiles, readout_relation, readout_number) VALUES
  ('N=C(N)NCCC[C@@H]1NC(=O)CN(CC2CCCCC2)NC(=O)[C@H](Cc2c[nH]c3ccccc23)NC(=O)CN(Cc2ccc(F)cc2)NC(=O)[C@H](Cc2c[nH]c3ccccc23)NC(=O)CN(CCCCN)NC1=O', '=', 25),
  ('CCCCCCCCN1CC(=O)N[C@@H](Cc2c[nH]c3ccccc23)C(=O)NN(CCCCCCCC)CC(=O)N[C@@H](CCCCN)C(=O)NN(CCCCN)CC(=O)N[C@@H](Cc2c[nH]c3ccccc23)C(=O)N1', '=', 6.25),
  ('C[C@@H](O)[C@@H]1NC(=O)CN(CCCCN)NC(=O)[C@H](Cc2ccccc2)NC(=O)CN(Cc2cccc3ccccc23)NC(=O)[C@H](CO)NC(=O)CN(CCCCN)NC(=O)[C@H](CO)NC(=O)CN(CCCCN)NC1=O', '>', 100),
  ('CC(C)CN1CC(=O)N[C@@H](Cc2c[nH]c3ccccc23)C(=O)NN(CCCCN)CC(=O)N[C@@H](CCCCN)C(=O)NN(CCCCN)CC(=O)N[C@@H](Cc2c[nH]c3ccccc23)C(=O)N1', '>', 100),
  ('CC(C)CN1CC(=O)N[C@@H](Cc2c[nH]c3ccccc23)C(=O)NN(CC(C)C)CC(=O)N[C@@H](CCCCN)C(=O)NN(CCCCN)CC(=O)N[C@@H](CCCCN)C(=O)N1', '>', 100),
  ('CC(C)C[C@@H]1NC(=O)CN(Cc2ccc(-c3ccccc3)cc2)NC(=O)[C@H](CCCCN)NC(=O)CN(CCCCN)NC(=O)CN(Cc2ccc(-c3ccccc3)cc2)NC1=O', '=', 25),
  ('CC(C)CN1CC(=O)N[C@@H](Cc2c[nH]c3ccccc23)C(=O)NN(CC(C)C)CC(=O)N[C@@H](CCCCN)C(=O)NN(CCCCN)CC(=O)N[C@@H](Cc2c[nH]c3ccccc23)C(=O)N1', '>', 100);
